molecular target: HGFR (c-MET) (Homo sapiens, UniProt P08581); construct: purchased Upstate 14-526; experiment: HGFR continuous-coupled spectrophotometric assay (Ki and % inhibition); assay type: biochemical; details: read-out: % (inhibition) at 1 μM (printed in the Met IC50 column), at 1 μM
Sequence (P08581 25-1390): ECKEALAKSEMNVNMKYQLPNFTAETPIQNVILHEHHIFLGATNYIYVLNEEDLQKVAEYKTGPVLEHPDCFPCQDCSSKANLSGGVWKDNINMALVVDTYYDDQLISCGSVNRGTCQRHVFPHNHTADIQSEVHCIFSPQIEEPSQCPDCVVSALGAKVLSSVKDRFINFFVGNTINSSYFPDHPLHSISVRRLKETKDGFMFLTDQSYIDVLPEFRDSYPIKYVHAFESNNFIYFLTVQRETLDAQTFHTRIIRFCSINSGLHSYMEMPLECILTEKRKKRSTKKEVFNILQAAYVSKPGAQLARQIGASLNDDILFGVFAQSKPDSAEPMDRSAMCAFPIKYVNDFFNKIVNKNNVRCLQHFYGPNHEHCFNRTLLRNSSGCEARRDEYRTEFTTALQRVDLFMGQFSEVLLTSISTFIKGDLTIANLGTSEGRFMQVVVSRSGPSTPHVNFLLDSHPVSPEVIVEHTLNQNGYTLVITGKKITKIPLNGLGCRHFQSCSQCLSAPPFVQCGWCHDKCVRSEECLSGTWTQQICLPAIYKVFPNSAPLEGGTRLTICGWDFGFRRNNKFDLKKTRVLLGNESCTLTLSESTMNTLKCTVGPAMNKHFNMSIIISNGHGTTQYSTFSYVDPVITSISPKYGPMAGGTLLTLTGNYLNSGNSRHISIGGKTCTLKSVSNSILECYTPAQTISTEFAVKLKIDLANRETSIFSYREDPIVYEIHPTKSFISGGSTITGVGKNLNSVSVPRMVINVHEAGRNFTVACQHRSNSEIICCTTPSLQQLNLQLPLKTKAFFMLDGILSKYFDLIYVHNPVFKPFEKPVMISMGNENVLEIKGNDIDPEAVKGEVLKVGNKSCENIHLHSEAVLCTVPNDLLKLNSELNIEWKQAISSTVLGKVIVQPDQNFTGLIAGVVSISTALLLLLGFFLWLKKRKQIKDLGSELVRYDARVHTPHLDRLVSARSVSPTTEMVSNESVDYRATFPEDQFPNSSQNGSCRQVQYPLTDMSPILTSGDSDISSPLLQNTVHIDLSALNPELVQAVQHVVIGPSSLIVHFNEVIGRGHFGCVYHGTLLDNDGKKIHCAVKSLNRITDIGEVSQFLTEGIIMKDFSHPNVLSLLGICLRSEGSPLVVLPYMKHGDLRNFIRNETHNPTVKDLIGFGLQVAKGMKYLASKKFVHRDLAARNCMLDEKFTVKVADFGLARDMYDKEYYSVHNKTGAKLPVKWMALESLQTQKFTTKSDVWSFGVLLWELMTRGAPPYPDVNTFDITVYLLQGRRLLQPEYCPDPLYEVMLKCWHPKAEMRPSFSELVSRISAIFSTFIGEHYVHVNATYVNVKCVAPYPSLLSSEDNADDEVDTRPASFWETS
molecules and their reported inhibition at 1 µM
measurement-kind: inhibition at 1 µM (%)

CC(=O)NCc1cnc(N)c(OC(C)c2c(Cl)ccc(F)c2Cl)c1 (centres unmarked) [Example I-459]    2
CC(Oc1cc(-c2ccc(C(=O)N3C[C@@H](C)N[C@@H](C)C3)cc2)cnc1N)c1cccc(F)c1C(F)(F)F (some centres unmarked) [Example I-444]    10
CC(Oc1cc(-c2ccc(C(=O)NCCCN3CCOCC3)cc2)cnc1N)c1cccc(F)c1C(F)(F)F (centres unmarked) [Example I-453]    10
CC(Oc1cc([C@H](O)CO)cnc1N)c1c(Cl)ccc(F)c1Cl (some centres unmarked) [Example I-462]    2
CC(Oc1cc([C@@H](O)CO)cnc1N)c1c(Cl)ccc(F)c1Cl (some centres unmarked) [Example I-463]    2
